FYI, the data here is from ChEMBL document CHEMBL4673251.

experiment: Dissociation constant, pKa of the compound; type: physicochemical; conditions: read-out: pKa
Reported pKa by item:

pKa reading for COc1cccc(C2(F)CC2N)c1 (trans isomer) : 6.63

pKa reading for COc1ccc(C2(F)CC2N)cc1 (trans isomer) : 7.5

pKa reading for NC1CC1(F)c1ccc(C(F)(F)F)cc1 (stereo in doubt; 20b) : 7

====

Molecular target: Sigma intracellular receptor 2 (Rattus norvegicus, UniProt Q5U3Y7)
Sequence (Q5U3Y7 whole entry): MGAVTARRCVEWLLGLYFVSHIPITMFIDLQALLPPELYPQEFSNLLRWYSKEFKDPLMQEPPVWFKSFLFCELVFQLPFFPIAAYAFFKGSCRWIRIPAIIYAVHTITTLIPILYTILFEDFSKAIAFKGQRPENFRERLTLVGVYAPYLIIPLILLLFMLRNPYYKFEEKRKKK
Experiment: Displacement of [3H]-di-o-tolylguanidine from Sigma 2 receptor in rat liver membrane incubated for 120 mins by solid scintillation counting method
Reported log10 of Ki by item:
On a log10 scale: recorded Ki, unit µM.

[
  {
    "compound": "Cc1ccc(C2(F)CC2N)cc1 (cis isomer)",
    "log10 of Ki": 0.49
  },
  {
    "compound": "NC1CC1(F)c1ccc(C(F)(F)F)cc1 (stereo in doubt; 20b)",
    "log10 of Ki": -1.02
  },
  {
    "compound": "NC1CC1(F)c1ccc(F)cc1 (stereo in doubt; 17b)",
    "log10 of Ki": 0.38
  },
  {
    "compound": "NC1CC1(F)c1ccc(F)cc1 (trans isomer)",
    "log10 of Ki": 0.08
  },
  {
    "compound": "NC1(c2ccccc2)CC1(F)c1ccccc1 (trans isomer)",
    "log10 of Ki": 0.36
  }
]

log10 of Ki reading for NC1(c2ccccc2)CC1(F)c1ccccc1 (stereo in doubt; 24b) : 0.85

log10 of Ki reading for N[C@@H]1C[C@H]1c1ccccc1.N[C@H]1C[C@@H]1c1ccccc1 (racemic) [TRANYLCYPROMINE] : 0.79

log10 of Ki reading for COc1ccc(C2(F)CC2N)cc1OC (stereo not given) : 0.49

log10 of Ki reading for NC1CC1(F)c1ccc(C(F)(F)F)cc1 (trans isomer) : -0.04

log10 of Ki reading for NC1CC1(F)c1ccc(Cl)cc1 (cis isomer) : 0.30
